- SYSTEM_NAME: SIGMA RECEPTOR (Cavia porcellus)
- Construct: Two milliter aliquots of the brain membrane preparation, containing 1.7 mg of protein; tissue Pel-Freeze (Rogers, Arkansas); host or cells: guinea-pig brains plus cerebella, membranes
- MEASUREMENT_PROTOCOL: Sigma receptor binding assay ([3H]-d-SKF-10,047 displacement, brain membranes)
- Design: species or system guinea-pig (male Hartley)
- EXPERIMENTAL_PARAMETERS: Table 3, cycloalkyl ring size; read-out: SIGMA RECEPTOR IC50
pIC50: −log10 of the molar value. Structures can show the parent of a compound that is named as a salt.
The reader will find reported pIC50 values listed item by item below.
ASSAY_METRIC: pIC50

INSERT INTO assay_data (molecule, system_name, observed_measurement) VALUES
  ('c1ccc(C2(CN3CCCCC3)CCCCC2)cc1 [Compound 2]', 'SIGMA RECEPTOR (Cavia porcellus)', 6.98),
  ('c1ccc(C2(CN3CCCCC3)CCCC2)cc1 [Compound 44]', 'SIGMA RECEPTOR (Cavia porcellus)', 6.00),
  ('O=C(OCCN1CCCC1)C1(c2ccccc2)CCCC1 [Compound 46]', 'SIGMA RECEPTOR (Cavia porcellus)', 6.34),
  ('c1ccc(C2(CN3CCCCC3)CC2)cc1 [Compound 45]', 'SIGMA RECEPTOR (Cavia porcellus)', 5.25),
  ('O=C(OCCN1CCCC1)C1(c2ccccc2)CC1 [Compound 47, hydrochloride]', 'SIGMA RECEPTOR (Cavia porcellus)', 5.83);

---

- SYSTEM_NAME: PCP RECEPTOR
- MEASUREMENT_PROTOCOL: PCP receptor binding assay ([3H]-TCP displacement, brain membranes)
- Set-up: species or system guinea-pig (male Hartley)
- EXPERIMENTAL_PARAMETERS: Table 4; IC50 and nM only stated in text; read-out: PCP
Where a name gives a salt, the structure may show the parent alone.
ASSAY_METRIC: IC50 (nM)

INSERT INTO assay_data (compound, assay_metric, value_operator, observed_measurement) VALUES
  ('CCN(CC)CCOC(=O)C1(c2ccccc2)CCCCC1.Cl [Compound 15, hydrochloride]', 'IC50', '=', 40900),
  ('O=C(OCCN1CCOCC1)C1(c2ccccc2)CCCCC1 [Compound 12, hydrochloride]', 'IC50', '>', 100000),
  ('CN(C)CCOC(=O)C1(c2ccccc2)CCCCC1.Cl [Compound 19, hydrochloride]', 'IC50', '=', 21700),
  ('O=C(OCCN1CCCC1)C1(c2ccccc2)CCCCC1 [Compound 8, hydrochloride]', 'IC50', '=', 64700),
  ('O=C(OCCN1CCCCC1)C1(c2ccccc2)CCCCC1 [Compound 3, hydrochloride]', 'IC50', '=', 34900);

---

- SYSTEM_NAME: SIGMA RECEPTOR (Cavia porcellus, UniProt Q60492)
- Construct: Two milliter aliquots of the brain membrane preparation, containing 1.7 mg of protein; tissue Pel-Freeze (Rogers, Arkansas); host or cells: guinea-pig brains plus cerebella, membranes
- Sequence (Q60492 whole entry): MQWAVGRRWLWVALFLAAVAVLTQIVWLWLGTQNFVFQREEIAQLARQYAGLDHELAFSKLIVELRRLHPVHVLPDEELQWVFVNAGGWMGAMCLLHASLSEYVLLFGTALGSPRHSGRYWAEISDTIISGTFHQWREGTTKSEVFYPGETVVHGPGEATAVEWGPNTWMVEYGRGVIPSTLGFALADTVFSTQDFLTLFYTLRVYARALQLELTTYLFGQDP
- MEASUREMENT_PROTOCOL: Sigma receptor binding assay ([3H]-d-SKF-10,047 displacement, brain membranes)
- Set-up: species or system guinea-pig (male Hartley)
- EXPERIMENTAL_PARAMETERS: read-out: IC50 at σ receptors
Where a name gives a salt, the structure may show the parent alone.
# IC50 annotations
ASSAY_METRIC: IC50

INSERT INTO measurements (compound, assay_metric, observed_measurement) VALUES
  ('CN(C)CCOC(=O)C1(c2ccccc2)CCCCC1.Cl [Compound 19, hydrochloride]', 'IC50', '< 0.1 µM'),
  ('O=C(OCCN1CCCCC1)C1(c2ccccc2)CCCCC1 [Compound 3, hydrochloride]', 'IC50', '< 0.1 µM'),
  ('Clc1cccc(C2(CN3CCCCC3)CCCCC2)c1', 'IC50', '0.071 µM'),
  ('CCN(CC)CCOC(=O)C1(c2ccccc2)CCCCC1.Cl [Compound 15, hydrochloride]', 'IC50', '< 0.1 µM');

---

- SYSTEM_NAME: PCP RECEPTOR
- MEASUREMENT_PROTOCOL: PCP receptor binding assay ([3H]-TCP displacement, brain membranes)
- Parameters: species or system guinea-pig (male Hartley)
- EXPERIMENTAL_PARAMETERS: Table 1; mean ± error (n); read-out: PCP RECEPTOR IC50
pIC50: −log10 of the molar value. Structures can show the parent of a compound that is named as a salt.
ASSAY_METRIC: pIC50

INSERT INTO assay_data (molecule, system_name, value_operator, observed_measurement) VALUES
  ('C[N+]1(CCOC(=O)C2(c3ccccc3)CCCCC2)CCCC1', 'PCP RECEPTOR', '<', 4.60),
  ('O=C(OCCN1CCCC1)C1(c2ccccc2)CCCCC1 [Compound 8, hydrochloride]', 'PCP RECEPTOR', '=', 4.19),
  ('CN(C)CC1(c2ccccc2)CCCCC1', 'PCP RECEPTOR', '<', 4.60),
  ('C[N+](C)(C)CCOC(=O)C1(c2ccccc2)CCCCC1', 'PCP RECEPTOR', '<', 4.60),
  ('CN(C)C1(c2ccccc2)CCCCC1 [Compound 17, N,N-dimethyl-1-phenylcyclohexylamine, reference compound]', 'PCP RECEPTOR', '=', 6.62),
  ('O=C(OCCN1CCCCC1)C1(c2ccccc2)CCCCC1 [Compound 3, hydrochloride]', 'PCP RECEPTOR', '=', 4.46),
  ('CC[N+](C)(CC)CCOC(=O)C1(c2ccccc2)CCCCC1', 'PCP RECEPTOR', '<', 4.60),
  ('c1ccc(C2(N3CCCCC3)CCCCC2)cc1 [Compound 1, 1-(1-phenylcylohexyl)piperidine, reference compound]', 'PCP RECEPTOR', '=', 7.35);

---

- SYSTEM_NAME: SIGMA RECEPTOR (Cavia porcellus, UniProt Q60492)
- Construct: Two milliter aliquots of the brain membrane preparation, containing 1.7 mg of protein; tissue Pel-Freeze (Rogers, Arkansas); host or cells: guinea-pig brains plus cerebella, membranes
- MEASUREMENT_PROTOCOL: Sigma receptor binding assay ([3H]-d-SKF-10,047 displacement, brain membranes)
- Parameters: species or system guinea-pig (male Hartley)
- EXPERIMENTAL_PARAMETERS: Table 1; slope of dose response curve
Where a name gives a salt, the structure may show the parent alone.
ASSAY_METRIC: SIGMA RECEPTOR SLOPE

INSERT INTO assay_data (molecule, assay_metric, observed_measurement) VALUES
  ('c1ccc(C2(CN3CCCC3)CCCCC2)cc1', 'SIGMA RECEPTOR SLOPE', 0.88),
  ('CN(C)CC1(c2ccccc2)CCCCC1', 'SIGMA RECEPTOR SLOPE', 0.85),
  ('c1ccc(C2(CN3CCOCC3)CCCCC2)cc1', 'SIGMA RECEPTOR SLOPE', 0.60),
  ('CC[N+](C)(CC)CCOC(=O)C1(c2ccccc2)CCCCC1', 'SIGMA RECEPTOR SLOPE', 0.86),
  ('O=C(OCCN1CCOCC1)C1(c2ccccc2)CCCCC1 [Compound 12, hydrochloride]', 'SIGMA RECEPTOR SLOPE', 0.48),
  ('c1ccc(C2(N3CCCCC3)CCCCC2)cc1 [Compound 1, 1-(1-phenylcylohexyl)piperidine, reference compound]', 'SIGMA RECEPTOR SLOPE', 0.95),
  ('c1ccc(C2(CN3CCCCC3)CCCCC2)cc1', 'SIGMA RECEPTOR SLOPE', 0.66),
  ('c1ccc(C2(N3CCOCC3)CCCCC2)cc1 [Compound 10, 4-(1-phenylcyclohexyl)morpholine, reference compound]', 'SIGMA RECEPTOR SLOPE', 0.47),
  ('CCN(CC)CCOC(=O)C1(c2ccccc2)CCCCC1.Cl', 'SIGMA RECEPTOR SLOPE', 0.66);

---

- SYSTEM_NAME: SIGMA RECEPTOR (Cavia porcellus, UniProt Q60492)
- Construct: Two milliter aliquots of the brain membrane preparation, containing 1.7 mg of protein; tissue Pel-Freeze (Rogers, Arkansas); host or cells: guinea-pig brains plus cerebella, membranes
- MEASUREMENT_PROTOCOL: Sigma receptor binding assay ([3H]-d-SKF-10,047 displacement, brain membranes)
- Parameters: species or system guinea-pig (male Hartley)
- Description: This example illustrates testing of compounds in receptor binding assays. Frozen brains from male Hartley guinea-pigs were obtained from Pel-Freeze (Rogers, Arkansas). The brains plus cerebella were homogenized in 10 volumes (v/w) of 0.1M, pH 7.4, ice-cold Tris-HCl buffer with a Brinkmann polytron at setting 4 for 20 seconds. […] The filters were transferred to 5 ml of liquid scintillation fluid and the retained radioactivity was measured by liquid scintillation spectrometry.
ASSAY_METRIC: potency at σ receptors (in words)

INSERT INTO results (compound, observed_measurement) VALUES
  ('COc1ccc(C2(CN3CCCC3)CCCCC2)cc1 [Compound 34]', 'somewhat potent'),
  ('O=[N+]([O-])c1ccc(C2(CN3CCCC3)CCCCC2)cc1 [Compound 31]', 'somewhat potent');
